Biological target: T1, human GFRα3 expressed with a C-terminal mFc tag (human)
T1 construct: also called hGFRα3-mFc
T1 chain: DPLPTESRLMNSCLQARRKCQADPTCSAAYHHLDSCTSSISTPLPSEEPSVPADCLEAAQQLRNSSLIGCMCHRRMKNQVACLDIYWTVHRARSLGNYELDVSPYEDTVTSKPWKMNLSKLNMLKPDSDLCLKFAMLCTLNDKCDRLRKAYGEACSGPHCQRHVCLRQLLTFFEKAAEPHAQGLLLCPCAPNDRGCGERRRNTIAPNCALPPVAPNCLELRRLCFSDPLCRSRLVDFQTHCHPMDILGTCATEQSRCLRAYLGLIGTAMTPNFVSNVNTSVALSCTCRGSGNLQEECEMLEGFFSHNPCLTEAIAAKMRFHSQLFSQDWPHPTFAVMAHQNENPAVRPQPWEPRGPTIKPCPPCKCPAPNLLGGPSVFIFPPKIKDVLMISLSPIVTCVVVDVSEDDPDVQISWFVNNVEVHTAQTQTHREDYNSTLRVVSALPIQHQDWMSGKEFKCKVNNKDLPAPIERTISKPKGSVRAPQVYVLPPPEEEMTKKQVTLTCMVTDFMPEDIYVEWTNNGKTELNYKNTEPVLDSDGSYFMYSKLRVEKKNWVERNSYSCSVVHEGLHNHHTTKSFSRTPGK
Assay: SPR, Ab captured, 25C
quantity_kind: t1/2
State the value with its unit after it.

H4H2345S (antibody, human IgG4, V domains shown, human IgG4 Fc (H4H)) VH: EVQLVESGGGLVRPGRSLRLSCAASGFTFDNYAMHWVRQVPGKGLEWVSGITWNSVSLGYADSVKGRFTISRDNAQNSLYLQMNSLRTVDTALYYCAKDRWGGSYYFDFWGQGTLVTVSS VL: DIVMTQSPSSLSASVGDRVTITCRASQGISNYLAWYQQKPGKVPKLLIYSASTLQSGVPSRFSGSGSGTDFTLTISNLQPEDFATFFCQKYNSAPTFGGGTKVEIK : 6.4 h
H4H2294S (antibody, human IgG4, V domains shown, human IgG4 Fc (H4H)) VH: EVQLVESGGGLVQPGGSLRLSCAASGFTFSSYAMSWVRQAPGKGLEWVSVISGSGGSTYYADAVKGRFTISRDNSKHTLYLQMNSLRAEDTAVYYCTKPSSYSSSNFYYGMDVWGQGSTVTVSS VL: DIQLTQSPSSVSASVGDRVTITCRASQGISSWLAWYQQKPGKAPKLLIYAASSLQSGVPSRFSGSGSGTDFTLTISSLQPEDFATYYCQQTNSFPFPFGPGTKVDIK : 34.2 h
H4H2350P (antibody, human IgG4, V domains shown, human IgG4 Fc (H4H)) VH: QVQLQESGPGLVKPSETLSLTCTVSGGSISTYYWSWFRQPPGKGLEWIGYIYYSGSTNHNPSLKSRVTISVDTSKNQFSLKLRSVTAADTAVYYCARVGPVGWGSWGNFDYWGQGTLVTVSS VL: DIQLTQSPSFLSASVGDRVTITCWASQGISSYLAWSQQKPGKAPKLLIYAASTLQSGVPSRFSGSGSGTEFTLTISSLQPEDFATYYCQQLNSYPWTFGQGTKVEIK : 9.08 h
H4H2346S (antibody, human IgG4, V domains shown, human IgG4 Fc (H4H)) VH: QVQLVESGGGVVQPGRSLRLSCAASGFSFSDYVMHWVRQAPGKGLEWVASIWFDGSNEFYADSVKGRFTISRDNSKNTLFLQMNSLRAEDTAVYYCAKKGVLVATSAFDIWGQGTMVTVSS VL: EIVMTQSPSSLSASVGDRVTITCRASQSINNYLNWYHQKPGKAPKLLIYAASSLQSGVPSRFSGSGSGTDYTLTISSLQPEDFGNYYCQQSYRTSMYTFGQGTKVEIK : 13.4 h

Now take the following binder into account.
Could you tell me which t1/2 is on file for H4H2364S (antibody, human IgG4, V domains shown, human IgG4 Fc (H4H)) VH: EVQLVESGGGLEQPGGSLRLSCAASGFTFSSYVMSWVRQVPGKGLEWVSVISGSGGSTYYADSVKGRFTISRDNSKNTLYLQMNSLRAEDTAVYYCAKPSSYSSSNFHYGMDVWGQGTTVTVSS VL: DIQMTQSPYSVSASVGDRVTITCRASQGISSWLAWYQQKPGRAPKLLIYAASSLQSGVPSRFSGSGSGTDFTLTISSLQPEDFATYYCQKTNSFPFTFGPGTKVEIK ?
192 h
